Measured pest or weed control at 70 g/ha accompanies every entry in the list below.
- Tested on: Key Broadleaf Weed and Crop Species
- Procedure details: Post-Emergent Test II: postemergent herbicidal activity, visual rating after 14 d (Table 7)
- Type: in vivo
- Run parameters: post-emergence, 336 h, velvetleaf (Abutilon theophrasti), 70 g ai/ha, read-out: Visual Growth Reduction (%) 14 Days After Application ABUTH

Molecule: COC(=O)c1nc(-c2ccc3c(c2)OC(C)O3)c(F)c(N)c1Cl (stereo not drawn)
pest or weed control at 70 g/ha: 60 to 74%
//
Molecule: COC(=O)c1nc(-c2cc3c(cc2F)OCO3)cc(N)c1Cl
pest or weed control at 70 g/ha: 95 to 100%
//
Molecule: COc1c(C(=O)O)nc(-c2cc3c(cc2F)OC(F)(F)O3)c(F)c1N
pest or weed control at 70 g/ha: 0 to 29%
//
Molecule: COC(=O)c1nc(-c2cccc3c2OC(F)(F)O3)c(F)c(N)c1Cl
pest or weed control at 70 g/ha: 75 to 84%
//
Molecule: COC(=O)c1nc(-c2cc3c(cc2F)OC(F)(F)O3)c(F)c(N)c1F
pest or weed control at 70 g/ha: 0 to 29%
//
Molecule: Nc1nc(-c2cc3c(cc2F)OC(F)(F)O3)nc(C(=O)O)c1Cl
pest or weed control at 70 g/ha: 0 to 29%
//
Molecule: COC(=O)c1nc(-c2cc3c(cc2F)OCO3)nc(N)c1OC
pest or weed control at 70 g/ha: 0 to 29%
//
Molecule: C=Cc1c(C(=O)O)nc(-c2cc3c(cc2F)OC(F)(F)O3)c(F)c1N
pest or weed control at 70 g/ha: 0 to 29%
//
Molecule: Nc1c(Cl)c(C(=O)O)nc(-c2cc3c(cc2F)OC(F)(F)O3)c1Cl
pest or weed control at 70 g/ha: 0 to 29%
//
Molecule: Nc1cc(-c2ccc3c(c2F)OC(F)(F)O3)nc(C(=O)O)c1Cl
pest or weed control at 70 g/ha: 75 to 84%
//
Molecule: Nc1c(F)c(-c2cccc3c2OC(F)(F)O3)nc(C(=O)O)c1Cl
pest or weed control at 70 g/ha: 30 to 44%
//
Molecule: Nc1nc(-c2ccc3c(c2)OC(F)(F)O3)nc(C(=O)O)c1Cl
pest or weed control at 70 g/ha: 60 to 74%
